Parameter: pIC50. Scope: all listed entries.
Target: MAP4K1 (HPK1) (Homo sapiens (Human), UniProt Q92918)
Sequence (Q92918 whole entry): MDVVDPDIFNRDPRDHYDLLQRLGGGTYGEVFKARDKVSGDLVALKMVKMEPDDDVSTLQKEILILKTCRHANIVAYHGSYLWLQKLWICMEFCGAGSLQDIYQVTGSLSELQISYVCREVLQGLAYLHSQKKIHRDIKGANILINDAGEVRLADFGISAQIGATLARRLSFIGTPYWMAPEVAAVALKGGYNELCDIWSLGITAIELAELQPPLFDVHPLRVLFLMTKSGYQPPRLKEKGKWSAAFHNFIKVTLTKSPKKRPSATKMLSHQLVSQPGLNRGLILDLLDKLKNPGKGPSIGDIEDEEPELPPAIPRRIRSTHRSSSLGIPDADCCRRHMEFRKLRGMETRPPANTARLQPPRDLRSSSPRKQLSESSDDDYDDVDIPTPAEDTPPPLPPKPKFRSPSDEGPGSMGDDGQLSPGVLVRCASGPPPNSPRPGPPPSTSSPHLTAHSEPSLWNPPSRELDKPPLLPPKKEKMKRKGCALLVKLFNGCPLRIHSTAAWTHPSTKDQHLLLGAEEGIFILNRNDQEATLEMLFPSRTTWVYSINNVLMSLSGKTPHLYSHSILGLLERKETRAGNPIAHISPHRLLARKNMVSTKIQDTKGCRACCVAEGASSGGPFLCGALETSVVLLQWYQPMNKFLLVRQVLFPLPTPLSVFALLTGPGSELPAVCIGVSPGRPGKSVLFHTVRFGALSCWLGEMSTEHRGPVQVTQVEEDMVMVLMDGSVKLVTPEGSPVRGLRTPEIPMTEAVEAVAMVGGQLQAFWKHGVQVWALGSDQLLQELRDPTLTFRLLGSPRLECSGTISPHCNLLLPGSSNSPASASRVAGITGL
Assay: MAP4K1 (HPK1) biochemical enzymatic activity, electrophoretic mobility shift (EZReader 2), ATP at APPKM (26 μM)
Conditions: numeric value
pIC50: −log10 of the molar value.
measured_property: pIC50

> print(dat)
                                    molecule                       experimental.system  measured.property  measured.value
 1  C[C@@H]1OC(=O)c2ccc(Nc3cc4c(C(C)(C)N)cnc(OCC(F)(F)F)c4cn3)nc2[C@H]1C [Compound 78]  MAP4K1 (HPK1) (Homo sapiens (Human), UniProt Q92918)              pIC50            9.72
 2  CCOc1ncc(C(C)(C)N)c2cc(Nc3ccc4c(n3)C[C@@H](C)OC4=O)ncc12 (single isomer, unassigned) [Compound 42]  MAP4K1 (HPK1) (Homo sapiens (Human), UniProt Q92918)              pIC50            9.07
 3  CCNc1ncc(C(C)(C)N)c2cc(Nc3ccc4c(n3)CC(C)(C)OC4=O)ncc12 [Compound 53]  MAP4K1 (HPK1) (Homo sapiens (Human), UniProt Q92918)              pIC50            9.44
 4  COc1ncc(C(C)(C)N)c2cc(Nc3ccc4c(n3)CC(C)(C)CC4=O)ncc12 [Compound 34]  MAP4K1 (HPK1) (Homo sapiens (Human), UniProt Q92918)              pIC50            9.62
 5  COc1ncc([C@@](C)(N)C2CC2)c2cc(Nc3ccc4c(n3)[C@@H](C)C(C)(C)OC4=O)ncc12 [Compound 102]  MAP4K1 (HPK1) (Homo sapiens (Human), UniProt Q92918)              pIC50            8.73
 6  CC[C@@H](F)c1nc(Nc2cc3c(C(C)(C)N)cnc(OC)c3cn2)cnc1C#N (single isomer, unassigned) [Compound 31]  MAP4K1 (HPK1) (Homo sapiens (Human), UniProt Q92918)              pIC50            8.23
 7  C[C@@H]1OC(=O)c2ccc(Nc3cc4c([C@](C)(N)C5CC5)cnc(OC5CC5)c4cn3)nc2[C@H]1C (single isomer, unassigned) [Compound 75]  MAP4K1 (HPK1) (Homo sapiens (Human), UniProt Q92918)              pIC50           10.05
 8  C[C@@H]1OC(=O)c2ccc(Nc3cc4c(C(C)(C)N)cnc(OC5CC(F)(F)C5)c4cn3)nc2[C@H]1C [Compound 178]  MAP4K1 (HPK1) (Homo sapiens (Human), UniProt Q92918)              pIC50            9.54
 9  CC1(C)Cc2nc(Nc3cc4c([C@](C)(N)C5CCC5)cnc(OC5CC5)c4cn3)ccc2C(=O)O1 [Compound 168]  MAP4K1 (HPK1) (Homo sapiens (Human), UniProt Q92918)              pIC50            9.82
10  CCOc1ncc(C(C)(C)N)c2cc(Nc3ccc4c(n3)[C@@H](C)[C@H](C)OC4=O)ncc12 [Compound 57]  MAP4K1 (HPK1) (Homo sapiens (Human), UniProt Q92918)              pIC50            9.80
11  CC[C@@](C)(N)c1cnc(OC)c2cnc(Nc3ccc4c(n3)CC(C)(C)OC4=O)cc12 (single isomer, unassigned) [Compound 61]  MAP4K1 (HPK1) (Homo sapiens (Human), UniProt Q92918)              pIC50            9.82
12  CCOc1ncc(C(C)(C)N)c2cc(Nc3ccc4c(n3)[C@@H](C)[C@@H](C)OC4=O)ncc12 (single isomer, unassigned) [Compound 59]  MAP4K1 (HPK1) (Homo sapiens (Human), UniProt Q92918)              pIC50            8.47
13  CC[C@H](F)c1nc(Nc2cc3c(C(C)(C)N)cnc(OC)c3cn2)cnc1C#N (single isomer, unassigned) [Compound 30]  MAP4K1 (HPK1) (Homo sapiens (Human), UniProt Q92918)              pIC50            8.45
14  CC[C@@](C)(N)c1cnc(OC2(C)CC2)c2cnc(Nc3ccc4c(n3)[C@@H](C)[C@@H](C)OC4=O)cc12 [Compound 93]  MAP4K1 (HPK1) (Homo sapiens (Human), UniProt Q92918)              pIC50            8.44
15  CNc1ncc(C(C)(C)N)c2cc(Nc3ccnc(C(C)(C)F)n3)ncc12 [Compound 6]  MAP4K1 (HPK1) (Homo sapiens (Human), UniProt Q92918)              pIC50            8.48
16  C[C@@H]1OC(=O)c2ccc(Nc3cc4c(C(C)(C)N)cnc(NC5CC5)c4cn3)nc2[C@H]1C [Compound 109]  MAP4K1 (HPK1) (Homo sapiens (Human), UniProt Q92918)              pIC50            9.68
17  C[C@@H]1OC(=O)c2ccc(Nc3cc4c(C(C)(C)N)cnc(OC5(C)COC5)c4cn3)nc2[C@H]1C [Compound 197]  MAP4K1 (HPK1) (Homo sapiens (Human), UniProt Q92918)              pIC50            9.47
18  C[C@@H]1OC(=O)c2ccc(Nc3cc4c(C(C)(C)N)cnc(OC5CC5)c4cn3)nc2C12CC2 [Compound 120]  MAP4K1 (HPK1) (Homo sapiens (Human), UniProt Q92918)              pIC50            9.30
19  COCC(C)(N)c1cnc(OC2CC2)c2cnc(Nc3ccc4c(n3)[C@@H](C)[C@H](C)OC4=O)cc12 (single isomer, unassigned) [Compound 184]  MAP4K1 (HPK1) (Homo sapiens (Human), UniProt Q92918)              pIC50            9.57
20  CC1(Oc2ncc([C@](C)(N)C3CC3)c3cc(Nc4ccc5c(n4)C(C)(C)COC5=O)ncc23)CC1 [Compound 185]  MAP4K1 (HPK1) (Homo sapiens (Human), UniProt Q92918)              pIC50            9.46
21  COC[C@@H](N)c1cnc(OC)c2cnc(Nc3ccc4c(n3)[C@@H](C)C(C)(C)OC4=O)cc12 [Compound 208]  MAP4K1 (HPK1) (Homo sapiens (Human), UniProt Q92918)              pIC50            9.15
22  C[C@@H]1OC(=O)c2ccc(Nc3cc4c([C@](C)(N)C5CCC5)cnc(OC5CC5)c4cn3)nc2[C@H]1C [Compound 170]  MAP4K1 (HPK1) (Homo sapiens (Human), UniProt Q92918)              pIC50           10.15
23  COc1ncc(C(C)(C)N)c2cc(Nc3cnc(C#N)c(C(C)C(F)(F)F)n3)ncc12 (stereo not drawn) [Compound 63]  MAP4K1 (HPK1) (Homo sapiens (Human), UniProt Q92918)              pIC50            8.19
24  COc1ncc(C(C)(C)N)c2cc(Nc3ccc4c(n3)[C@H](C)[C@@H](C)OC4=O)ncc12 [Compound 38]  MAP4K1 (HPK1) (Homo sapiens (Human), UniProt Q92918)              pIC50            9.70
25  COc1ncc(C(C)(C)N)c2cc(Nc3ccc4c(n3)C[C@@H](C)OC4=O)ncc12 (single isomer, unassigned) [Compound 24]  MAP4K1 (HPK1) (Homo sapiens (Human), UniProt Q92918)              pIC50            9.33
26  CCOc1ncc(C(C)(C)N)c2cc(Nc3ccc4c(n3)[C@@H](C)C(C)(C)OC4=O)ncc12 [Compound 67]  MAP4K1 (HPK1) (Homo sapiens (Human), UniProt Q92918)              pIC50            9.92
27  C[C@H]1OC(=O)c2ccc(Nc3cc4c([C@](C)(N)C5CC5)cnc(OC5CC5)c4cn3)nc2C1(C)C (single isomer, unassigned) [Compound 171]  MAP4K1 (HPK1) (Homo sapiens (Human), UniProt Q92918)              pIC50           10.15
